- SYSTEM_TESTED: humanized 3E10 V66 (HEK293) (synthetic construct, UniProt P01857; SEQ:1-446,SEQ:1-218)
- Sequence (P01857 other isoform, or with tags, fused parts or gaps, chain 1 of 2): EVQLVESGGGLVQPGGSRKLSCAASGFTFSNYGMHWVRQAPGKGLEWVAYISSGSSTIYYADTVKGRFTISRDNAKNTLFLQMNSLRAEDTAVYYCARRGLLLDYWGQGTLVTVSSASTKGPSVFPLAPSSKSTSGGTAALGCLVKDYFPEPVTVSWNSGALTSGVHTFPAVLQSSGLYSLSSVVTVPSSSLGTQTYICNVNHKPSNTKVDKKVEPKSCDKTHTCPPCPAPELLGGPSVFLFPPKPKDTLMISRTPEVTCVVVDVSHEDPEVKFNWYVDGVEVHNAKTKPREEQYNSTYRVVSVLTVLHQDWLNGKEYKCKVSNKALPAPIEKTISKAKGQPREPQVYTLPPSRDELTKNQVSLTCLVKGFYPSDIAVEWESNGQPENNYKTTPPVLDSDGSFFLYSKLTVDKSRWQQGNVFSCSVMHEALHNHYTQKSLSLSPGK
- Sequence (chain, as listed by the source, chain 2 of 2): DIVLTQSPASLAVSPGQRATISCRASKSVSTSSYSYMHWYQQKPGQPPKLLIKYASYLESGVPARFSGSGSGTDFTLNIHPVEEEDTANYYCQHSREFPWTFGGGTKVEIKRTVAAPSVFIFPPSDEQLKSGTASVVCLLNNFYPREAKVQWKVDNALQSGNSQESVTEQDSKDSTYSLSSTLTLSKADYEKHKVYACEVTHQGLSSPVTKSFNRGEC
- ASSAY_SUMMARY: BLI; 1:1 model; antibody on AHC2 sensor; ka 2.42E5, kdis 3.13E-4
- REPORTED_CONDITIONS: tags: human Fc IgG; transiently expressed in HEK293; chain copies: 2 heavy + 2 light (inferred); hairpin

# BINDER, Kd, nM
rows = [
    ("3p-hpRNA RIG-I agonist (89 nt) (ssRNA, 5'-triphosphate) RNA: GGAGCAAAAGCAGGGUGACAAAGACAUAAUGGAUCCAAACACUGUGUCAAGCUUUCAGGUAGAUUGCUUUCUUUGGCAUGUCCGCAAAC", 1.3),
]
